Where do the numbers come from? From patent US6479487B1.

Listed below: IC50 values for each entry.
System: DMS-114
Assay: In vitro tumor cell proliferation, DMS-114
Format: cell-based, human
Conditions: DMS-114; many values given with an undefined *; trihydrochloride; read-out: In vitro Tumor Cell Proliferation (IC50, μM) Lung DMS-114
Counter-ions that a name gives are not always drawn.
attribute-measured: IC50 (µM)

molecule: N[C@H]1CC[C@H](Nc2nc(NC3CCN(Cc4ccc(Cl)c(Cl)c4)CC3)c3ncn(C4CCCC4)c3n2)CC1 [Example 147-o, trihydrochloride]
measured-number: 0.71
--
molecule: N[C@H]1CC[C@H](Nc2nc(NC3CCN(Cc4ccccc4C(F)(F)F)CC3)c3ncn(C4CCCC4)c3n2)CC1 [Example 147-b, trihydrochloride]
measured-number: 0.82
--
molecule: N[C@H]1CC[C@H](Nc2nc(NC3CCN(Cc4c(F)cccc4Cl)CC3)c3ncn(C4CCCC4)c3n2)CC1 [Example 147-n, trihydrochloride]
measured-number: 0.8
